// provenance: ChEMBL document CHEMBL1129461

Known IC50 of a selection of compounds
- target-of-assay: Protein kinase C alpha type (Homo sapiens, UniProt P17252)
- experimental-protocol: Evaluated against recombinant human Protein kinase C alpha
Report the figure in nM without appending any unit label.

The following compounds have reported results that may help.
compound: COC(=O)c1cccc(O)c1C(=O)c1c(O)cc(C(=O)OCCCc2ccc(O)cc2)cc1O
target-of-assay: Protein kinase C alpha type (Homo sapiens, UniProt P17252)
IC50, nM: 7800
//
compound: O=C(OC[C@H](Cc1ccc(O)cc1)NS(=O)(=O)c1ccccc1)c1cc(O)c(C(=O)c2c(O)cccc2C(=O)O)c(O)c1
target-of-assay: Protein kinase C alpha type (Homo sapiens, UniProt P17252)
IC50, nM: 1900
//
compound: CN(C)C(COC(=O)c1cc(O)c(C(=O)c2c(O)cccc2C(=O)O)c(O)c1)Cc1ccc(O)cc1 (centres undefined)
target-of-assay: Protein kinase C alpha type (Homo sapiens, UniProt P17252)
IC50, nM: 4000

Next item in the queue.
Return reported IC50; argument: O=C(OC1CNCC1Cc1ccc(O)cc1)c1cc(O)c(C(=O)c2c(O)cccc2C(=O)O)c(O)c1 (centres undefined) 260

* * *

- target-of-assay: Protein kinase C epsilon type (Homo sapiens, UniProt Q02156)
- experimental-protocol: Evaluated against recombinant human Protein kinase C epsilon
Below, each entry is listed alongside its reported pIC50.
# reply with the number alone; pIC50 is -log10 of concentration in mol/L

compound: O=C(NCCOC(=O)c1cc(O)c(C(=O)c2c(O)cccc2C(=O)O)c(O)c1)c1ccc(O)cc1
pIC50: 4.89
//
compound: Cc1ccc(S(=O)(=O)N2CCC[C@@H](OC(=O)c3cc(O)c(C(=O)c4c(O)cccc4C(=O)O)c(O)c3)[C@H](NC(=O)c3ccc(O)cc3)C2)cc1
pIC50: 4.82
//
compound: O=C(OCC(COc1ccc(O)cc1)NS(=O)(=O)c1ccccc1)c1cc(O)c(C(=O)c2c(O)cccc2C(=O)O)c(O)c1 (configuration not stated)
pIC50: 4.33
//
compound: O=C(OC1CCCC1Cc1ccc(O)cc1)c1cc(O)c(C(=O)c2c(O)cccc2C(=O)O)c(O)c1 (stereo in doubt; 20b)
pIC50: 6.30
//
compound: O=C(OC[C@@H](Cc1ccc(O)cc1)NS(=O)(=O)c1ccccc1)c1cc(O)c(C(=O)c2c(O)cccc2C(=O)O)c(O)c1
pIC50: 6.34

Let's switch to this compound now.
What is its pIC50 for Protein kinase C epsilon type (Homo sapiens, UniProt Q02156)? Entry: CC(CCc1ccc(O)cc1)OC(=O)c1cc(O)c(C(=O)c2c(O)cccc2C(=O)O)c(O)c1 (configuration not stated) 6.55

* * *

- target-of-assay: Protein kinase C epsilon type (Homo sapiens, UniProt Q02156)
- Sequence (Q02156 whole entry): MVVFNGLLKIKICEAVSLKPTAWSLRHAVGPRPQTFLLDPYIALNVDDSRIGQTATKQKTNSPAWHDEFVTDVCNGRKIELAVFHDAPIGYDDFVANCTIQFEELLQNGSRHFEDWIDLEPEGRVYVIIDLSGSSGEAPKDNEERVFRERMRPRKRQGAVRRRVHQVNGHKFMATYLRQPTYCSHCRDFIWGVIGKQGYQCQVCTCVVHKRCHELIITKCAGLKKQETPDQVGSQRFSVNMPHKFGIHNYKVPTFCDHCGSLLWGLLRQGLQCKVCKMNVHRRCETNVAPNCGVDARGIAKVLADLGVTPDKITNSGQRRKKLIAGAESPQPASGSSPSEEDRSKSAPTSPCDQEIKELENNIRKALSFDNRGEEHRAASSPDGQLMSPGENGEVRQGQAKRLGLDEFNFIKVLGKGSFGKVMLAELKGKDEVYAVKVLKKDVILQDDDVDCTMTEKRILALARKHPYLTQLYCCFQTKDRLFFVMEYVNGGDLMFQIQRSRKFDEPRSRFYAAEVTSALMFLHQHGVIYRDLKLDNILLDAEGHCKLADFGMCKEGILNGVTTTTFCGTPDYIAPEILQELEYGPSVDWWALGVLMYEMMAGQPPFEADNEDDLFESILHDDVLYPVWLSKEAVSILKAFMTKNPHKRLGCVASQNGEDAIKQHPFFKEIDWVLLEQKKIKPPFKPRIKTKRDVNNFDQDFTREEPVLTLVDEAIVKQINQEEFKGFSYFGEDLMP
- experimental-protocol: Evaluated against recombinant human Protein kinase C epsilon
measured-attribute: IC50 (µM)
Give just the numeric value; µM need not be written.

Example results:
molecule: CN(C)C(COC(=O)c1cc(O)c(C(=O)c2c(O)cccc2C(=O)O)c(O)c1)Cc1ccc(O)cc1 (stereo not drawn)
recorded-value: 30

molecule: O=C(OCC(Cc1ccc(O)cc1)NS(=O)(=O)c1ccc2ccccc2c1)c1cc(O)c(C(=O)c2c(O)cccc2C(=O)O)c(O)c1 (stereo not drawn)
recorded-value: 39

molecule: O=C(OCCCCc1ccc(O)cc1)c1cc(O)c(C(=O)c2c(O)cccc2C(=O)O)c(O)c1
recorded-value: 30

molecule: O=C(NC1CCCC1OC(=O)c1cc(O)c(C(=O)c2c(O)cccc2C(=O)O)c(O)c1)c1ccc(O)cc1 (stereo not drawn)
recorded-value: 0.05

molecule: COC(=O)c1cccc(O)c1C(=O)c1c(O)cc(C(=O)OC2CCCC2Cc2ccc(O)cc2)cc1O (stereo not drawn)
recorded-value: 4.5

Lab note: next molecule to report on.
What does the record list as IC50 for O=C(OCCCc1ccc(O)cc1)c1cc(O)c(C(=O)c2c(O)cccc2C(=O)O)c(O)c1 ? 4.1
